pKi: −log10 of the molar value.
Target or system Mu-type opioid receptor (Rattus norvegicus, UniProt P33535): recorded pKi listed per item.
outcome_measure: pKi

molecule	outcome_measure	endpoint_value
C[C@H]1CN(C2CCCC2)CC[C@@]1(C)c1cccc(O)c1	pKi	6.35
C[C@H]1CN(C/C=C/c2ccccc2Cl)CC[C@@]1(C)c1cccc(O)c1	pKi	8.95
C[C@H]1CN(C/C=C/c2ccccc2)CC[C@@]1(C)c1cccc(O)c1	pKi	9.13
Cc1ccccc1/C=C/CN1CC[C@@](C)(c2cccc(O)c2)[C@@H](C)C1	pKi	9.07
C[C@H]1CN(C/C=C\c2ccccc2)CC[C@@]1(C)c1cccc(O)c1	pKi	7.94
C[C@H]1CN(C[C@@H]2C[C@H]2c2ccccc2)CC[C@@]1(C)c1cccc(O)c1	pKi	8.76
C[C@H]1CN(CC[C@H](O)C2CCCCC2)CC[C@@]1(C)c1cccc(O)c1	pKi	9.49
C[C@H]1CN(C2CCCCC2)CC[C@@]1(C)c1cccc(O)c1	pKi	5.89
C[C@H]1CN(C2CCCC(O)(c3ccccc3)C2)CC[C@@]1(C)c1cccc(O)c1 (stereo partly specified)	pKi	6.69
C[C@H]1CN(Cc2cc3ccccc3o2)CC[C@@]1(C)c1cccc(O)c1	pKi	7.65
C[C@H]1CN(Cc2cc3ccccc3s2)CC[C@@]1(C)c1cccc(O)c1	pKi	7.67
